target: CDK1:Cyclin-B (Homo sapiens); construct: purchased New England Biolabs 6020; host or cells: insect cells; experiment: CDK1 Screening Assay; assay type: biochemical; settings: Table 1; read-out: CDK1 IC50
Sequence (P06493 whole entry): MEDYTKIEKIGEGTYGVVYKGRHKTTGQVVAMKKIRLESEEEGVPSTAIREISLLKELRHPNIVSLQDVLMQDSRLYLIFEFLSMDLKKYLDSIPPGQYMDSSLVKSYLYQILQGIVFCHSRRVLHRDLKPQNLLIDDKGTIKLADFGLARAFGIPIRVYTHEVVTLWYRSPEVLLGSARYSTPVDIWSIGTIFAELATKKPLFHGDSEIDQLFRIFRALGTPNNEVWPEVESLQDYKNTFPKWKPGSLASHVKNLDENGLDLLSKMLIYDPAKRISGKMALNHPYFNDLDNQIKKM
Sequence (P14635 whole entry partner): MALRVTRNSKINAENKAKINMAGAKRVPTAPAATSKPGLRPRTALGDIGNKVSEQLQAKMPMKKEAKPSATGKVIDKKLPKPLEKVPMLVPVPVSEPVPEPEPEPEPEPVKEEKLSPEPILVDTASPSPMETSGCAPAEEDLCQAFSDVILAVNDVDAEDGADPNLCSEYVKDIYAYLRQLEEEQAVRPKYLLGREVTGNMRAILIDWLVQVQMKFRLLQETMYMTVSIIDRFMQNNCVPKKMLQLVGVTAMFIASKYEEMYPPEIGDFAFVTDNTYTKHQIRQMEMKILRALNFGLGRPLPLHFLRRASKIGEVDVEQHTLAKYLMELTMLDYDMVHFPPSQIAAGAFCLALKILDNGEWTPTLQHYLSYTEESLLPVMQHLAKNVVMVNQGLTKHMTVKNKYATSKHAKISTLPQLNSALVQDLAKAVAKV
Param label: returns true when IC50 < 300 nM, returns false otherwise, including exact equality.

ENTRY SMILES | ASSIGNED LABEL
Nc1nc(Nc2ccc(S(N)(=O)=O)cc2)nn1C(=O)c1ccc(-c2ccccn2)s1 | false
Nc1nc(Nc2ccc(S(N)(=O)=O)cc2)nn1C(=O)c1c(F)ccc(Cl)c1F | true
Nc1nc(Nc2ccc(-n3cnnc3)cc2)nn1C(=O)c1c(F)cccc1F | false
Cc1cc(C)c(C(=O)n2nc(Nc3ccc(S(=O)(=O)Nc4ccccn4)cc3)nc2N)s1 | true
CNc1nc(N)n(C(=O)c2sccc2C)n1 | false
Nc1nc(Nc2ccc(S(N)(=O)=O)cc2)nn1C(=S)Nc1c(F)cccc1F | true
Cc1ccsc1C(=O)n1nc(Nc2ccc(N3CCNC3=O)cc2)nc1N | true
Nc1nc(Nc2ccc(S(=O)(=O)N3CCCCC3)cc2)nn1C(=O)c1c(F)cccc1F | false
Cc1cc(C)c(C(=O)n2nc(Nc3ccc(N4CCN(C)CC4)cc3)nc2N)s1 | false
Cc1ccc(F)c(C(=O)n2nc(Nc3ccc(-n4cnnc4)cc3)nc2N)c1F | true
Cc1ccsc1C(=O)n1nc(Nc2ccc(S(=O)(=O)NCCN(C)C)cc2)nc1N | true
Nc1nc(Nc2ccc(S(N)(=O)=O)cc2)nn1C(=O)/C=C/c1cccs1 | true
Nc1nc(Nc2ccc(S(N)(=O)=O)cc2)nn1C(=O)C1CCCCCC1 | true
Cc1ccsc1C(=O)n1nc(Nc2ccc(-n3ccnc3)cc2)nc1N | false
CCc1ccc(C(=O)n2nc(Nc3ccc(S(N)(=O)=O)cc3)nc2N)s1 | true
Cc1ccc(F)c(C(=O)n2nc(Nc3ccc(S(=O)(=O)N(C)C)cc3)nc2N)c1F | false
Nc1nc(Nc2ccc(S(N)(=O)=O)cc2)nn1C(=O)c1sccc1Br | true
CNS(=O)(=O)c1ccc(Nc2nc(N)n(C(=O)c3sccc3C)n2)cc1 | true
Nc1nc(Nc2ccc(S(N)(=O)=O)cc2)nn1C(=O)c1c(F)cccc1C(F)(F)F | true
Cc1ccsc1C(=O)n1nc(Nc2ccc(S(=O)(=O)N3CCCCC3)cc2)nc1N | true
Cc1ccsc1C(=O)n1nc(Nc2ccc(S(N)(=O)=O)cc2)nc1N | true
Nc1nc(Nc2ccc(S(N)(=O)=O)cc2)nn1C(=O)c1c(F)cccc1Cl | true
COc1cccc(OC)c1C(=O)n1nc(Nc2ccc(S(N)(=O)=O)cc2)nc1N | true
Nc1nc(Nc2ccc(-n3ccnc3)cc2)nn1C(=O)c1c(F)cccc1F | false
CC(C)(C)c1ccc(C(=O)n2nc(Nc3ccc(S(N)(=O)=O)cc3)nc2N)s1 | true
Cc1cccc(C)c1C(=O)n1nc(Nc2ccc(S(N)(=O)=O)cc2)nc1N | false
Cc1ccc(C(=O)n2nc(Nc3ccc(S(N)(=O)=O)cc3)nc2N)s1 | true

====

molecular target: HER2 (human epidermal growth factor receptor-2) (Homo sapiens, UniProt P04626); construct: begins at amino acid 676 followed by the remainder of the HER2 cytoplasmic domain; polyhistidine (N); assay: Kinase Selectivity Assay HER2; assay type: biochemical; settings: Kinase Selectivity, Tables 2a-2k; read-out: HER2 Kinase IC50
Sequence (P04626 676-1255 limits assumed): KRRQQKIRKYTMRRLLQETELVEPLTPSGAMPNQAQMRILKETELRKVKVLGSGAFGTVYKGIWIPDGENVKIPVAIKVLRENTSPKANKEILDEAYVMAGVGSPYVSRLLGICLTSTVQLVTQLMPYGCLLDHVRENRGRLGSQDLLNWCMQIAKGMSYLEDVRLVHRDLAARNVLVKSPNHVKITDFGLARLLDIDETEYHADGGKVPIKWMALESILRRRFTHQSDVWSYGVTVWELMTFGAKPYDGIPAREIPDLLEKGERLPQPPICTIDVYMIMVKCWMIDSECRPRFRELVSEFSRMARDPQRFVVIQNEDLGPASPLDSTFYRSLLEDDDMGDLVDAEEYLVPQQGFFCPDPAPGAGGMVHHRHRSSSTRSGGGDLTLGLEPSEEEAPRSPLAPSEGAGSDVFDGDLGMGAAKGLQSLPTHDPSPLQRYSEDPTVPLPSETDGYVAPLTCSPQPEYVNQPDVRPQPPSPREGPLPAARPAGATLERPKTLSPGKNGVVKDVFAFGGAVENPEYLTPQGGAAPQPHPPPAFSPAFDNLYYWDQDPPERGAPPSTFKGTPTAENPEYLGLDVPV

COMPOUND | RELATION SYMBOL | IC50, nM
Nc1nc(Nc2cccc(Cl)c2)n(C(=O)c2ccccc2)n1 | > | 100000
Cc1ccc(F)c(C(=O)n2nc(N)nc2Nc2ccc(S(N)(=O)=O)cc2)c1F | > | 100000
Nc1nc(Nc2ccc(S(=O)(=O)Nc3ccccn3)cc2)nn1C(=O)c1c(F)cccc1F | > | 10000
Nc1ccc(F)c(C(=O)n2nc(Nc3ccc(S(N)(=O)=O)cc3)nc2N)c1F | = | 2190
Nc1nc(Nc2cccc(Cl)c2)nn1C(=O)c1c(F)cccc1F | = | 150
CCc1ccc(C(=O)n2nc(Nc3ccc(NS(C)(=O)=O)cc3)nc2N)s1 | = | 6
CCc1ccc(C(=O)n2nc(Nc3ccc(S(N)(=O)=O)cc3)nc2N)s1 | = | 9
Nc1nc(Nc2ccccc2)n(C(=O)c2c(F)cccc2F)n1 | = | 820
CN1CCN(c2ccc(Nc3nc(N)n(C(=O)c4c(F)cccc4F)n3)cc2)CC1 | = | 1300
Nc1nc(Nc2ccccc2)n(C(=O)c2ccccc2)n1 | > | 100000
CC(C)(C)c1ccc(C(=O)n2nc(Nc3ccc(S(N)(=O)=O)cc3)nc2N)s1 | = | 31
CC(O)c1ccc(F)c(C(=O)n2nc(Nc3ccc(S(N)(=O)=O)cc3)nc2N)c1F (centres unmarked) | = | 654
Nc1nc(Nc2ccc(S(N)(=O)=O)cc2)nn1C(=S)Nc1c(F)cccc1F | = | 60
CNS(=O)(=O)c1ccc(Nc2nc(N)n(C(=O)c3sc(C)cc3C)n2)cc1 | = | 13

Source: patent US6924302B2
